The reader will find reported MTT values listed item by item below.
System: cellular dehydrogenase activity
Settings: Table 4; C2C12 myotubes, 48 h, composite Z-score

compound	experimental_result
COc1cc2c(cc1OC)C1C(=O)c3c(cc4c(c3O)C=CC(C)(C)O4)OC1CO2 (stereo not drawn) [beta-toxicarol, reference compound]	−1.498
COc1cc2c(cc1OC)[C@@H]1C(=O)c3ccc4c(c3O[C@@H]1CO2)C=CC(C)(C)O4 [deguelin(−), reference compound]	−4.052

Turning to the following compound.
### Prompt // query MTT value for entry O=C1c2ccc(O)cc2OC(c2cc(O)c(O)c(O)c2)C1O (stereo in doubt) [dihydrorobinetin, reference compound]
### Response −1.259
